MIC by entry:
- Test system: M. tuberculosis H37Rv CNCTC My 331/88
- experiment: Antimycobacterial in vitro screening, microdilution broth panel method, Alamar Blue
- Assay type: cell-based, Mycobacterium tuberculosis
- details: Mycobacterium tuberculosis, H37RV, 336 h, pH 6, Sula's medium pH 6.0, 14 days, 37 °C
readout-kind: MIC

[[record]]
compound = "Cc1nc(C#N)c(C#N)nc1NCc1ccc(N)cc1 [Compound 7]"
measured_target = "M. tuberculosis H37Rv CNCTC My 331/88"
test_result = "25 µg/mL"

[[record]]
compound = "Cc1nc(C#N)c(C#N)nc1NCc1cccc(C(F)(F)F)c1 [Compound 2]"
measured_target = "M. tuberculosis H37Rv CNCTC My 331/88"
test_result = "12.5 µg/mL"

[[record]]
compound = "Cc1nc(C#N)c(C#N)nc1NCc1ccc(Cl)cc1 [Compound 15]"
measured_target = "M. tuberculosis H37Rv CNCTC My 331/88"
test_result = "12.5 µg/mL"

[[record]]
compound = "NNC(=O)c1ccncc1 [INH, isoniazid, reference compound]"
measured_target = "M. tuberculosis H37Rv CNCTC My 331/88"
test_result = "1.56 µg/mL"

[[record]]
compound = "Cc1nc(C#N)c(C#N)nc1NCc1cccc([N+](=O)[O-])c1 [Compound 14]"
measured_target = "M. tuberculosis H37Rv CNCTC My 331/88"
test_result = "12.5 µg/mL"

[[record]]
compound = "NC(=O)c1cnccn1 [PZA, pyrazinamide, reference compound]"
measured_target = "M. tuberculosis H37Rv CNCTC My 331/88"
test_result = "12.5 µg/mL"

[[record]]
compound = "Cc1ccc(CNc2nc(C#N)c(C#N)nc2C)cc1 [Compound 4]"
measured_target = "M. tuberculosis H37Rv CNCTC My 331/88"
test_result = "25 µg/mL"


###

Attribute: MIC
- System: M. tuberculosis H37Rv CNCTC My 331/88
- experiment: Antimycobacterial in vitro screening, microdilution broth panel method, Alamar Blue
- Type: cell-based, Mycobacterium tuberculosis
- details: Mycobacterium tuberculosis, H37RV, 336 h, pH 6, Sula's medium pH 6.0, 14 days, 37 °C
readout-kind: MIC (µg/mL)

[[record]]
entry_smiles = "Cc1nc(C#N)c(C#N)nc1NCc1ccc(C(F)(F)F)cc1"
readout_kind = "MIC"
limit_operator = "="
test_result = 6.25

[[record]]
entry_smiles = "COc1ccc(CNc2nc(C#N)c(C#N)nc2C)c(OC)c1"
readout_kind = "MIC"
limit_operator = "="
test_result = 25

[[record]]
entry_smiles = "Cc1nc(C#N)c(C#N)nc1NCc1ccccc1C(F)(F)F"
readout_kind = "MIC"
limit_operator = "="
test_result = 12.5

[[record]]
entry_smiles = "COc1ccc(CNc2nc(C#N)c(C#N)nc2C)cc1"
readout_kind = "MIC"
limit_operator = ">"
test_result = 100

[[record]]
entry_smiles = "Cc1nc(C#N)c(C#N)nc1NCc1ccc(Cl)c(Cl)c1"
readout_kind = "MIC"
limit_operator = "="
test_result = 6.25

[[record]]
entry_smiles = "Cc1ccccc1CNc1nc(C#N)c(C#N)nc1C"
readout_kind = "MIC"
limit_operator = ">"
test_result = 100

[[record]]
entry_smiles = "Cc1nc(C#N)c(C#N)nc1NCc1cccc(Cl)c1"
readout_kind = "MIC"
limit_operator = "="
test_result = 12.5

[[record]]
entry_smiles = "Cc1nc(C#N)c(C#N)nc1NCc1ccccc1F"
readout_kind = "MIC"
limit_operator = "="
test_result = 12.5

[[record]]
entry_smiles = "Cc1nc(C#N)c(C#N)nc1NCc1ccccc1"
readout_kind = "MIC"
limit_operator = "="
test_result = 25

[[record]]
entry_smiles = "Cc1nc(C#N)c(C#N)nc1NCc1ccccc1Cl"
readout_kind = "MIC"
limit_operator = "="
test_result = 6.25

